Recorded values, source ChEMBL document CHEMBL1133939.

Target Or Test System: UniProt A3EZJ3
Assay Info: Inhibitory activity against hepatitis C virus (HCV) NS3 protease in the absence of Zn2+
Set-up: species or system Hepacivirus hominis
pIC50: −log10 of the molar value.
Measurement Label: pIC50

>>> result("Cn1c(Cc2nc3cc(C(N)=O)ccc3[nH]2)nc2ccc(C(=O)NC(CP(=O)(O)O)C(=O)O)cc21 (stereo unspecified)")
3.78

* * *

Here the recorded pIC50 is given for each entry.
Target Or Test System: NS3 (Hepatitis C virus, UniProt A3EZJ3)
Sequence (A3EZJ3 whole entry): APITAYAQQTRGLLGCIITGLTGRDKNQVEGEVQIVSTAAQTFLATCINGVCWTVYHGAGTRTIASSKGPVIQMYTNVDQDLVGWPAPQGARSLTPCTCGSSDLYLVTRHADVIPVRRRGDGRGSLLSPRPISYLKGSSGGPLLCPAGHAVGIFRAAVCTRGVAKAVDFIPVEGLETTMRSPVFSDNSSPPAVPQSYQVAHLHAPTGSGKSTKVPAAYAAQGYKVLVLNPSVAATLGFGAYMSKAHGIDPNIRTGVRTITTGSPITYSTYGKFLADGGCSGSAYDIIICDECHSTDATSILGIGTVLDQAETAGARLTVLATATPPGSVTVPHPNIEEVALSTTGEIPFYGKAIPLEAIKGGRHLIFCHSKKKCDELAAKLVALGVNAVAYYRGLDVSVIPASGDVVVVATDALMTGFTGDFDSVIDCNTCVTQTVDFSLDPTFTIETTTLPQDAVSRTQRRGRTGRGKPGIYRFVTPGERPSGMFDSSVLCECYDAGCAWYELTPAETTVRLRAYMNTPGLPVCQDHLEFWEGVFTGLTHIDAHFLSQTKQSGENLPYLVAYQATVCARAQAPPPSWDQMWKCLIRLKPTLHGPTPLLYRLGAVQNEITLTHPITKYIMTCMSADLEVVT
Assay Info: Inhibitory activity against hepatitis C virus (HCV) NS3 protease in the presence of Zn2+.
Design: species or system Hepacivirus hominis
pIC50: −log10 of the molar value.
Measurement Label: pIC50

>>> result("Cn1c(Cc2nc3ccccc3[nH]2)nc2ccc(C(=O)NC(CC(=O)NS(=O)(=O)c3ccccc3C(=O)O)C(=O)O)cc21 (configuration not stated)")
5.47
>>> result("Cn1c(Cc2nc3ccc(C(N)=O)cc3[nH]2)nc2ccc(C(=O)NC(Cc3ccc(OCC(=O)O)cc3)C(=O)O)cc21 (configuration not stated)")
6.00
>>> result("Cn1c(Cc2nc3ccc(C(N)=O)cc3[nH]2)nc2ccc(C(=O)NC(Cc3ccc(C(=O)O)c(OCC(=O)O)c3)C(=O)O)cc21 (configuration not stated)")
5.05
>>> result("Cn1c(Cc2nc3cc(C(N)=O)ccc3[nH]2)nc2ccc(C(=O)NC(CP(=O)(O)O)C(=O)O)cc21 (configuration not stated)")
6.70
>>> result("Cn1c(Cc2nc3cc(C(N)=O)ccc3[nH]2)nc2ccc(C(=O)NC(Cc3ccc(OCC(=O)O)c(C(=O)O)c3)C(=O)O)cc21 (configuration not stated)")
5.40
>>> result("Cn1c(Cc2nc3ccc(C(N)=O)cc3[nH]2)nc2ccc(C(=O)NC(CCC(=O)NS(=O)(=O)c3ccccc3C(=O)O)C(=O)O)cc21 (configuration not stated)")
5.59
>>> result("COC(=O)c1ccccc1S(=O)(=O)NC(=O)CC(NC(=O)c1ccc2nc(Cc3nc4ccc(C(N)=O)cc4[nH]3)n(C)c2c1)C(=O)O (configuration not stated)")
5.09
